Listed next: entries and their corresponding pKi.
- protocol: Inhibition of chymotrypsin-like activity of rabbit reticulocyte 20S proteasome
- Parameters: species or system Oryctolagus cuniculus
pKi: −log10 of the molar value. Residues, ends and D or L forms follow the SMILES beside them. *: point of attachment. Boc = CC(C)(C)OC(=O)*; NHBn = c1ccc(CN*)cc1; NHPh = c1ccc(N*)cc1; Bn = c1ccc(C*)cc1
quantity-kind: pKi

molecule="NCCCC[C@H](NC(=O)[C@@H](N)Cc1ccc(OCc2ccccc2)cc1)C(=O)N[C@@H](Cc1c[nH]c2ccccc12)C(=O)NCc1ccccc1 (H-Tyr(Bn)-Lys-Trp-NHBn)" lt_gt_eq== value_observed=5.97
molecule=CNC(=O)[C@@H](Cc1c[nH]c2c(-c3ccc(C[C@H](NC(=O)OC(C)(C)C)C(=O)N[C@H](C)C(=O)OC)cc3OCc3ccccc3)cccc12)NC(=O)OCc1ccccc1 lt_gt_eq=< value_observed=4.00
molecule="COC(=O)[C@H](Cc1c[nH]c2ccccc12)NC(=O)[C@H](C)NC(=O)[C@H](Cc1ccc(O)cc1)NC(=O)OC(C)(C)C (Boc-Tyr-Ala-Trp-OMe)" lt_gt_eq== value_observed=5.04
molecule="NCCCC[C@H](NC(=O)[C@@H](N)Cc1ccc(OCc2ccccc2)cc1)C(=O)N[C@@H](Cc1c[nH]c2ccccc12)C(=O)Nc1ccccc1 (H-Tyr(Bn)-Lys-Trp-NHPh)" lt_gt_eq== value_observed=5.65
molecule=COC(=O)[C@@H]1Cc2c[nH]c3c(cccc23)-c2ccc(cc2OC)C[C@H](NC(=O)OC(C)(C)C)C(=O)N[C@@H](C)C(=O)N1 lt_gt_eq=< value_observed=4.00

====

- protocol: Inhibition of trypsin-like activity of rabbit reticulocyte 20S proteasome
- Parameters: species or system Oryctolagus cuniculus
pKi: −log10 of the molar value.
Listed next: entries and their corresponding pKi.
quantity-kind: pKi

chemical_smiles=CCOC(=O)[C@H](Cc1c[nH]c2c(Br)cccc12)NC(=O)[C@H](CC(C)C)NC(=O)[C@H](Cc1ccc(OC)c(I)c1)NC(=O)OC(C)(C)C quantity_kind=pKi lt_gt_eq=< value_observed=4.00
chemical_smiles=NCCCC[C@H](NC(=O)[C@@H](N)Cc1ccc(OCc2ccccc2)cc1)C(=O)N[C@@H](Cc1c[nH]c2ccccc12)C(=O)Nc1ccc(O)cc1 quantity_kind=pKi lt_gt_eq== value_observed=6.01
chemical_smiles=CNC(=O)[C@@H](Cc1c[nH]c2c(-c3ccc(C[C@H](NC(=O)OC(C)(C)C)C(=O)N[C@H](CC(C)C)C(=O)OC)cc3OCc3ccccc3)cccc12)NC(=O)OCc1ccccc1 quantity_kind=pKi lt_gt_eq== value_observed=4.16

====

Listed next: entries and their corresponding half-life.
- protocol: Stability in RPMI medium in presence of 20% fetal calf serum
- Format: ADME
- study-conditions: cattle, RPMI medium with 20% fetal calf serum
Residues, ends and D or L forms follow the SMILES beside them. *: point of attachment. Boc = CC(C)(C)OC(=O)*; NHBn = c1ccc(CN*)cc1; Bn = c1ccc(C*)cc1
quantity-kind: half-life

compound="CC(C)(C)OC(=O)N[C@@H](Cc1ccc(OCc2ccccc2)cc1)C(=O)N[C@@H](CC(N)=O)C(=O)N[C@@H](Cc1c[nH]c2ccccc12)C(=O)NCc1ccccc1 (Boc-Tyr(Bn)-Asn-Trp-NHBn)" quantity_kind=half-life value_observed="390 min"
compound=C[C@H](NC(=O)[C@H](Cc1ccc(OCc2ccccc2)c(I)c1)NC(=O)OC(C)(C)C)C(=O)N[C@@H](Cc1c[nH]c2c(Br)cccc12)C(=O)O quantity_kind=half-life value_observed="2220 min"

====

- Organism: Oryctolagus cuniculus
- protocol: Activation of trypsin-like activity of rabbit reticulocyte 20S proteasome relative to control
Residues, ends and D or L forms follow the SMILES beside them. *: point of attachment. Boc = CC(C)(C)OC(=O)*; NHPh = c1ccc(N*)cc1; Bn = c1ccc(C*)cc1
quantity-kind: Fold change

molecule=COC(=O)[C@@H]1Cc2c[nH]c3c(cccc23)-c2ccc(cc2OC)C[C@H](NC(=O)OC(C)(C)C)C(=O)N[C@@H](CC(C)C)C(=O)N1 value_observed=1.8
molecule=CC(C)(C)OC(=O)NCCCCNC(=O)[C@H](Cc1c[nH]c2ccccc12)NC(=O)[C@H](CC(N)=O)NC(=O)[C@H](Cc1ccc(OCc2ccccc2)cc1)NC(=O)OC(C)(C)C value_observed=2.2
molecule="C[C@H](NC(=O)[C@H](Cc1ccc(OCc2ccccc2)cc1)NC(=O)OC(C)(C)C)C(=O)N[C@@H](Cc1c[nH]c2ccccc12)C(=O)Nc1ccccc1 (Boc-Tyr(Bn)-Ala-Trp-NHPh)" value_observed=1.6
molecule="C[C@H](NC(=O)[C@H](Cc1ccc(O)cc1)NC(=O)OC(C)(C)C)C(=O)N[C@@H](Cc1c[nH]c2ccccc12)C(=O)O (Boc-Tyr-Ala-Trp-OH)" value_observed=6.8
molecule="CC(C)(C)OC(=O)N[C@@H](Cc1ccc(OCc2ccccc2)cc1)C(=O)N[C@@H](CC(N)=O)C(=O)N[C@@H](Cc1c[nH]c2ccccc12)C(=O)Nc1ccccc1 (Boc-Tyr(Bn)-Asn-Trp-NHPh)" value_observed=1.6

====

- protocol: Inhibition of post acid activity of rabbit reticulocyte 20S proteasome
- Set-up: species or system Oryctolagus cuniculus
Residues, ends and D or L forms follow the SMILES beside them. *: point of attachment. Boc = CC(C)(C)OC(=O)*; NHBn = c1ccc(CN*)cc1; NHPh = c1ccc(N*)cc1; Bn = c1ccc(C*)cc1
Listed next: entries and their corresponding Ki.
quantity-kind: Ki

compound="CC(C)(C)OC(=O)NCCCC[C@H](NC(=O)[C@H](Cc1ccc(OCc2ccccc2)cc1)NC(=O)OC(C)(C)C)C(=O)N[C@@H](Cc1c[nH]c2ccccc12)C(=O)NCc1ccccc1 (Boc-Tyr(Bn)-Lys(Boc)-Trp-NHBn)" value_observed="> 100 µM"
compound="COC(=O)[C@H](Cc1c[nH]c2ccccc12)NC(=O)[C@H](C)NC(=O)[C@H](Cc1ccc(O)cc1)NC(=O)OC(C)(C)C (Boc-Tyr-Ala-Trp-OMe)" value_observed="8.7 µM"
compound="CC(C)C[C@H](NC(=O)[C@H](Cc1ccc(OCc2ccccc2)cc1)NC(=O)OC(C)(C)C)C(=O)N[C@@H](Cc1c[nH]c2ccccc12)C(=O)NCc1ccccc1 (Boc-Tyr(Bn)-Leu-Trp-NHBn)" value_observed="> 100 µM"
compound=CNC(=O)[C@@H](Cc1c[nH]c2c(-c3ccc(C[C@H](NC(=O)OC(C)(C)C)C(=O)N[C@H](CC(C)C)C(=O)OC)cc3OCc3ccccc3)cccc12)NC(=O)OCc1ccccc1 value_observed="> 100 µM"
compound=CCOC(=O)[C@@H](Cc1c[nH]c2c(-c3ccc(C[C@H](NC(=O)OC(C)(C)C)C(=O)N[C@H](CC(C)C)C(=O)OC)cc3OCc3ccccc3)cccc12)NC(=O)OCc1ccccc1 value_observed="> 100 µM"
compound="NCCCC[C@H](NC(=O)[C@@H](N)Cc1ccc(OCc2ccccc2)cc1)C(=O)N[C@@H](Cc1c[nH]c2ccccc12)C(=O)Nc1ccccc1 (H-Tyr(Bn)-Lys-Trp-NHPh)" value_observed="> 100 µM"
compound="CC(C)(C)OC(=O)N[C@@H](Cc1ccc(O)cc1)C(=O)N[C@@H](CCCNC(=N)N)C(=O)N[C@@H](Cc1c[nH]c2ccccc12)C(=O)NCc1ccccc1 (Boc-Tyr-Arg-Trp-NHBn)" value_observed="0.6 µM"
compound=CNC(=O)[C@H](Cc1c[nH]c2c(Br)cccc12)NC(=O)[C@H](C)NC(=O)[C@H](Cc1ccc(OCc2ccccc2)c(I)c1)NC(=O)OC(C)(C)C value_observed="30.2 µM"
compound=CC(C)(C)OC(=O)NCCCCNC(=O)[C@H](Cc1c[nH]c2ccccc12)NC(=O)[C@H](CCCCNC(=O)OC(C)(C)C)NC(=O)[C@H](Cc1ccc(OCc2ccccc2)cc1)NC(=O)OC(C)(C)C value_observed="> 100 µM"
compound=C[C@H](NC(=O)[C@H](Cc1ccc(OCc2ccccc2)c(I)c1)NC(=O)OC(C)(C)C)C(=O)N[C@@H](Cc1c[nH]c2c(Br)cccc12)C(=O)O value_observed="2.8 µM"
compound=COC(=O)[C@@H]1Cc2c[nH]c3c(cccc23)-c2ccc(cc2OC)C[C@H](NC(=O)OC(C)(C)C)C(=O)N[C@@H](C)C(=O)N1 value_observed="37.1 µM"
compound="C[C@H](NC(=O)[C@H](Cc1ccc(O)cc1)NC(=O)OC(C)(C)C)C(=O)N[C@@H](Cc1c[nH]c2ccccc12)C(=O)O (Boc-Tyr-Ala-Trp-OH)" value_observed="> 100 µM"
compound=CC(C)(C)OC(=O)N[C@@H](Cc1ccc(OCc2ccccc2)cc1)C(=O)N[C@@H](CCCN(C(=N)NC(=O)OCc1ccccc1)C(=O)OCc1ccccc1)C(=O)N[C@@H](Cc1c[nH]c2ccccc12)C(=O)Nc1ccc(O)cc1 value_observed="> 100 µM"
compound=COC(=O)[C@H](Cc1c[nH]c2c(Br)cccc12)NC(=O)[C@H](C)NC(=O)[C@H](Cc1ccc(OCc2ccccc2)c(I)c1)NC(=O)OC(C)(C)C value_observed="96.4 µM"
compound=C[C@H](NC(=O)[C@H](Cc1ccc(OCc2ccccc2)cc1)NC(=O)OC(C)(C)C)C(=O)N[C@@H](Cc1c[nH]c2ccccc12)C(=O)NCCCCNC(=O)OC(C)(C)C value_observed="> 100 µM"
compound="C[C@H](NC(=O)[C@H](Cc1ccc(OCc2ccccc2)cc1)NC(=O)OC(C)(C)C)C(=O)N[C@@H](Cc1c[nH]c2ccccc12)C(=O)Nc1ccccc1 (Boc-Tyr(Bn)-Ala-Trp-NHPh)" value_observed="> 100 µM"
compound=CC(C)(C)OC(=O)NCCCCNC(=O)[C@H](Cc1c[nH]c2ccccc12)NC(=O)[C@H](CC(N)=O)NC(=O)[C@H](Cc1ccc(OCc2ccccc2)cc1)NC(=O)OC(C)(C)C value_observed="> 100 µM"
compound="CC(C)C[C@H](NC(=O)[C@H](Cc1ccc(OCc2ccccc2)cc1)NC(=O)OC(C)(C)C)C(=O)N[C@@H](Cc1c[nH]c2ccccc12)C(=O)Nc1ccccc1 (Boc-Tyr(Bn)-Leu-Trp-NHPh)" value_observed="> 100 µM"
compound="COC(=O)[C@H](Cc1c[nH]c2ccccc12)NC(=O)[C@H](C)NC(=O)[C@H](Cc1ccc(OCc2ccccc2)cc1)NC(=O)OC(C)(C)C (Boc-Tyr(Bn)-Ala-Trp-OMe)" value_observed="> 100 µM"
compound=CC(C)C[C@H](NC(=O)[C@H](Cc1ccc(OCc2ccccc2)cc1)NC(=O)OC(C)(C)C)C(=O)N[C@@H](Cc1c[nH]c2ccccc12)C(=O)NCCCCNC(=O)OC(C)(C)C value_observed="31.5 µM"
compound=COC(=O)[C@H](Cc1c[nH]c2c(Br)cccc12)NC(=O)[C@H](CC(N)=O)NC(=O)[C@H](Cc1ccc(OCc2ccccc2)c(I)c1)NC(=O)OC(C)(C)C value_observed="55.4 µM"
